Sourced from paper PMC4038399

- test.system: 1000006: catalytic domain of protein tyrosine phosphatase (2G59) (Homo sapiens)
- Construct: the catalytic domain of PTP from H. sapiens (PDB ID: 2G59) (1000006); New York structural genomics consortium (gift)
- Sequence (Q16827 938-1195 limits assumed): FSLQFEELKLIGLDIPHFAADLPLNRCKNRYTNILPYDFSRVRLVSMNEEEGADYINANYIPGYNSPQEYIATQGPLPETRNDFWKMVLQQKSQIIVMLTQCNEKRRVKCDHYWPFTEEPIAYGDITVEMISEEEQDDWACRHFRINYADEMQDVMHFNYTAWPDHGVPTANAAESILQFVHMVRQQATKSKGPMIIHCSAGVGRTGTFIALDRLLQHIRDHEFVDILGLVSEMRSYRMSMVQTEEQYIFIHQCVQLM
- measurement.description: Thermal shift (thermal melt) assay, Sypro orange
- Type: binding, H. sapiens
- experimental.context: Table S4; protein 1000006; in °C (unit assumed)
Threshold 3. ΔTm below it: 1 (yes). ΔTm at it or above: 0 (no).

Examples from the recorded data:
COc1cc(C(=O)C(=O)c2cc(OC)c(O)c(OC)c2)cc(OC)c1O : 0 (no)
Nc1cc([N+](=O)[O-])ccc1Nc1ccc(O)cc1 : 1 (yes)

[Q] # check: ΔTm < 3 for "CCOc1ccc(NC(=O)c2cc3ccccc3cc2O)cc1"
[A] 0 (no)

[Q] # check: ΔTm < 3 for "Nc1cc(-c2ccccc2)ccc1O"
[A] 1 (yes)
